tested on: NCI-H522 lung; test: NCI-60 one-dose screen, 48 h (100 = growth as untreated, 0 = no growth, -100 = all killed); conditions: 10 µM unless noted
About 83,000 compounds went through this panel and 20% of them were active in at least one assay; those are over-represented in the sample as a whole.
Recorded growth determines the label; the label ranges are interval 1: < 40%; interval 2: ≥ 40% and < 90%; interval 3: ≥ 90%

Compound	Target Of Assay	Classification
Nc1cccc2c1CN(C1CCC(=O)NC1=O)C2=O (centres undefined)	NCI-H522 lung	interval 2
O=[N+]([O-])c1ccc(S(=O)(=O)N2CCN(c3ccnc4cc(Cl)ccc34)CC2)c([N+](=O)[O-])c1	NCI-H522 lung	interval 2
COc1ccc(/C=C2\Oc3cc(OCCN4CCCC4)ccc3C2=O)c(OC)c1	NCI-H522 lung	interval 3
O=S(=O)(NCCCNc1cc(-c2cn(-c3ccccc3)nc2-c2cccc(O)c2)ccn1)c1cccc(F)c1	NCI-H522 lung	interval 2
C=CCN=C1NC(=O)/C(=C/c2cc(C(C)(C)C)c(O)c(C(C)(C)C)c2)S1	NCI-H522 lung	interval 2

Request: Using the reported growth, which band applies to COc1ccc(NC(=O)CSc2nc3ccc(Cl)cc3c(=O)n2-c2ccccc2C(F)(F)F)c(OC)c1OC ?
Result: interval 1

Request: Clc1ccc(/C=C/c2nc(N3CCOCC3)c3nc(Cl)c(Cl)cc3n2)cc1 ?
Result: interval 3

Request: COc1cc(-c2csc(NC(=O)c3cc(C(F)(F)F)cc(C(F)(F)F)c3)n2)cc(OC)c1OC ?
Result: interval 1

* * *

test system: ACHN renal; assay: NCI-60 one-dose screen, 48 h (100 = growth as untreated, 0 = no growth, -100 = all killed); conditions: 10 µM unless noted
About 83,000 compounds went through this panel and 20% of them were active in at least one assay; those are over-represented in the sample as a whole.
Param label: returns 1 when growth < 80%, returns 0 otherwise, including exact equality.

Molecule	Classification
Clc1nc2ccccc2nc1CI	0

Request: Lab note: growth threshold 80%. Does this molecule come in strictly under it? O=C(OCCCCOC(=O)n1cnc2ccccc21)n1cnc2ccccc21
Result: 0

* * *

system: TK-10 renal; test: NCI-60 one-dose screen, 48 h (100 = growth as untreated, 0 = no growth, -100 = all killed); conditions: 10 µM unless noted
Compounds without any hit were thinned out: in the full panel of roughly 83,000, 20% have a hit.
Reported growth is given for each of the following compounds.
Field format: number, assumed %, no unit text.

# count of solved cases: 5
Compound	Target Of Assay	Unit Symbol	growth
O=C(Nc1ccc(I)cc1)c1cccc([N+](=O)[O-])c1O	TK-10 renal	%	7.73
COc1ccc(C2NC3=C(CCCC3)C(C#N)(C#N)C2(C#N)C#N)cc1 (stereo unspecified)	TK-10 renal	%	79.7
CCC(c1ccc(OC)cc1)C(CC)c1ccc(O)c(CN2CCCC2)c1 (stereo unspecified)	TK-10 renal	%	54.5
Clc1nc2ccccc2nc1CI	TK-10 renal	%	166
CCCCC(N)(C(=O)O)C1CCCC1 (stereo unspecified)	TK-10 renal	%	104

Request: GET /values?readout=growth&item= CCCCCCOc1ccc(C2(Cl)c3ccccc3N(C)c3ccccc32)cc1
Result: 76.7

Request: CC(C)C[C@H](NC(=O)[C@@H](Cc1ccccc1)n1ccc(Nc2ccccc2)cc1=O)B(O)O ?
Result: -0.144

Request: Cc1cc(C)c(NC(=O)c2sc3nc4c(cc3c2N)CN(Cc2ccccc2)CC4)c(C)c1 ?
Result: 67.6

Request: CCC1CCc2nc3sc(C(=O)Nc4ccccc4C)c(N)c3cc2C1 (stereo unspecified) ?
Result: 59.6

Request: Cc1cc(C)c2c(=O)[nH]c(SCC(=O)Nc3cccc(S(=O)(=O)N(C)C)c3)nc2n1 ?
Result: 98.4

Request: Nc1c(C(=O)Nc2ccccc2)sc2nc3c(cc12)CCCCC3 ?
Result: 21.6
